- protocol_details: Acid dissociation constant was determined
- Type: ADME
Respond with t for pKa values of 3 and above, f for values below.

compound_string	label_class
O=C1c2ccccc2S(=O)(=O)N1COP(=O)(OCc1ccccc1)OCc1ccccc1	f
O=C1c2ccccc2S(=O)(=O)N1COP(=O)(c1ccccc1)c1ccccc1	t
COP(=O)(OC)OCN1C(=O)c2ccccc2S1(=O)=O	f
CCCCOP(=O)(OCCCC)OCN1C(=O)c2ccccc2S1(=O)=O	f
CCOP(=O)(OCC)OCN1C(=O)c2ccccc2S1(=O)=O	f
O=C1c2ccccc2S(=O)(=O)N1COP(=O)(Oc1ccccc1)Oc1ccccc1	f

###

- study_system: Neutrophil elastase (Homo sapiens)
- Sequence (P08246 whole entry): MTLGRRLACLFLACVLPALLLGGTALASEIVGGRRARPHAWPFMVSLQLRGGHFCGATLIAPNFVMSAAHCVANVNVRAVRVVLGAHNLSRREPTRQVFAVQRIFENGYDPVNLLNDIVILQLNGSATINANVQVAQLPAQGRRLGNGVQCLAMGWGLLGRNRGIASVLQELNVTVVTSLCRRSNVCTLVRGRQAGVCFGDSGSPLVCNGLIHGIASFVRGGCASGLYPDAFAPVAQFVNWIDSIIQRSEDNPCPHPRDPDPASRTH
- protocol_details: Inhibitory activity against Human leukocyte elastase was determined
pKi: −log10 of the molar value.

compound_string	study_system	pKi
CCOP(=O)(OCC)OCN1C(=O)c2ccccc2S1(=O)=O	Neutrophil elastase (Homo sapiens)	7.22
O=C1c2ccccc2S(=O)(=O)N1COP(=O)(c1ccccc1)c1ccccc1	Neutrophil elastase (Homo sapiens)	7.52
CCCCOP(=O)(OCCCC)OCN1C(=O)c2ccccc2S1(=O)=O	Neutrophil elastase (Homo sapiens)	7.77
O=C1c2ccccc2S(=O)(=O)N1COP(=O)(OCc1ccccc1)OCc1ccccc1	Neutrophil elastase (Homo sapiens)	7.69
CCCCP(=O)(CCCC)OCN1C(=O)c2ccccc2S1(=O)=O	Neutrophil elastase (Homo sapiens)	7.62
O=C1c2ccccc2S(=O)(=O)N1COP(=O)(Oc1ccccc1)Oc1ccccc1	Neutrophil elastase (Homo sapiens)	8.19
COP(=O)(OC)OCN1C(=O)c2ccccc2S1(=O)=O	Neutrophil elastase (Homo sapiens)	7.00

###

In this section we review reported K inact values for a set of molecules.
- study_system: Neutrophil elastase (Homo sapiens) (UniProt P08246)
- protocol_details: Inhibitory activity against Human leukocyte elastase as kinetic constant for inhibition (inactivation)

compound_string	unit_name	K inact
CCOP(=O)(OCC)OCN1C(=O)c2c(C(C)C)cccc2S1(=O)=O	M⁻¹ s⁻¹	530000
COP(=O)(OC)OCN1C(=O)c2ccccc2S1(=O)=O	M⁻¹ s⁻¹	800
O=C1c2ccccc2S(=O)(=O)N1COP(=O)(c1ccccc1)c1ccccc1	M⁻¹ s⁻¹	1900
CCOP(=O)(OCC)OCN1C(=O)c2c(C(C)C)cc(OC)cc2S1(=O)=O	M⁻¹ s⁻¹	343000
O=C1c2ccccc2S(=O)(=O)N1COP(=O)(Oc1ccccc1)Oc1ccccc1	M⁻¹ s⁻¹	11000
